# Lookup of reported EC50 keyed by entry
molecular target: horseradish peroxidase (HRP) tagged delF508-CFTR (Homo sapiens, UniProt P13569, DEL508-508); construct: expressed in transfected cells; assay: Measurement of delF508-CFTR-HRP surface expression in CFBE41o- cells; type: cell-based; conditions: delF508-CFTR-HRP surface expression, CFBE41o- cells; read-out: DelF508-CFTR-HRP EC50
Sequence (P13569 with tags, fused parts or gaps DEL508-508): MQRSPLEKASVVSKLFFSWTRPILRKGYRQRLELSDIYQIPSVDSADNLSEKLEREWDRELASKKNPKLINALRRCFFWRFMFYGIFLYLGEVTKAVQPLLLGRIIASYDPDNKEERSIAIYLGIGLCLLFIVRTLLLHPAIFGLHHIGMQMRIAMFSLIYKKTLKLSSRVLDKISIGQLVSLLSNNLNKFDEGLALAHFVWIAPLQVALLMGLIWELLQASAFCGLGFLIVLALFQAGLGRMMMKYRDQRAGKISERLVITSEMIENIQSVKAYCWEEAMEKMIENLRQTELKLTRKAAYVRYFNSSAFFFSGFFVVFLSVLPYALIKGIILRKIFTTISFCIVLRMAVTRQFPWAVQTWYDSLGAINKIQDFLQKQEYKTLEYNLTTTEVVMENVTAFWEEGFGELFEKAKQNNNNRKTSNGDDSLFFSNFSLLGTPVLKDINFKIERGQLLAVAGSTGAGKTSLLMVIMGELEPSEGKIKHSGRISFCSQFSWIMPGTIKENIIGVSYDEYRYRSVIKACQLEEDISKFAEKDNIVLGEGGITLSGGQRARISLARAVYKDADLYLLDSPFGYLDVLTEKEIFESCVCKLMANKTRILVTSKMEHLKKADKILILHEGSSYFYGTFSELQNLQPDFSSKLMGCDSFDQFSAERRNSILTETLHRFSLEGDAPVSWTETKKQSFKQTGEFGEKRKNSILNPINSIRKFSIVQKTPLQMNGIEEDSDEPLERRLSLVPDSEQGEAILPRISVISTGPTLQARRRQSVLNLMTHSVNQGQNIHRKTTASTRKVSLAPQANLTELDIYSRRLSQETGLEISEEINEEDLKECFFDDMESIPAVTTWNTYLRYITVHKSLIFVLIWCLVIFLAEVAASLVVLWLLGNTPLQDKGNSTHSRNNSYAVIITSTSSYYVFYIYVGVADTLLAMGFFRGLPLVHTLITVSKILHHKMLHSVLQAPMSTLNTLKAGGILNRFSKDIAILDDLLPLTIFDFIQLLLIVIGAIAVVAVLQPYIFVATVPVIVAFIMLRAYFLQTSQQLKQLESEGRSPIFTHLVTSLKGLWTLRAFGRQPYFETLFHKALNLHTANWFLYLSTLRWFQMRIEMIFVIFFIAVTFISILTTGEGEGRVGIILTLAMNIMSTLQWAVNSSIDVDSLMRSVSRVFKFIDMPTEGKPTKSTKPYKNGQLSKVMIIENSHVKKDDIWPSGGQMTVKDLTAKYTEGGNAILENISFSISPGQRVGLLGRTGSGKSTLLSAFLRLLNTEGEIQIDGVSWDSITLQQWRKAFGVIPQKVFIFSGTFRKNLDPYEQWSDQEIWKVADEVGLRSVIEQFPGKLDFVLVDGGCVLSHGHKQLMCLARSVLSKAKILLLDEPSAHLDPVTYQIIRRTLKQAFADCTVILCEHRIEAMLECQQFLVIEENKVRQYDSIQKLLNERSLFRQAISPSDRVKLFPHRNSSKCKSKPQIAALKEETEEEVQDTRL
Structures can show the parent of a compound that is named as a salt.

compound: O=S(=O)(Nc1ccc(Cl)c(-c2ccc(F)cc2Cl)n1)c1cccc(N2CCNCC2)n1
EC50: 4.28 µM
--
compound: O=C(O)[C@@H]1CCCN(c2cccc(S(=O)(=O)Nc3ccc(C(F)(F)F)c(-c4ccccc4C4CCC4)n3)n2)C1
EC50: 1.34 µM
--
compound: Cc1ccc(OC(F)(F)F)cc1-c1nc(NS(=O)(=O)c2cccc(N)n2)ccc1C(F)(F)F
EC50: 0.942 µM
--
compound: Cc1ccc(F)cc1-c1nc(NS(=O)(=O)c2cccc(N3CCN[C@H](CO)C3)n2)ccc1C(F)(F)F [Example 175, Hydrochloride]
EC50: 3.27 µM
--
compound: Cc1ccccc1-c1nc(NS(=O)(=O)c2cccc(N3CCC4(CCC[C@H]4N)CC3)n2)ccc1C(F)(F)F
EC50: 3.92 µM

====

molecular target: delF508-CFTR (Homo sapiens, UniProt P13569, DEL508-508); construct: functional activity of the CFTR channel (Chloride ion transport) in patient derived primary human bronchial epithelial cells; host or cells: patient-derived primary human bronchial epithelial cells (delF508-CFTR); experiment: Measurement of delF508-CFTR functional activity in primary human bronchial epithelial cells (HBECs) using Multi-Transepithelial Clamp Circuit (MTECC-24) assay; type: cell-based; conditions: primary CF HBECs; test compound added 24h before assay plus potentiator; relative to reference combination (2 μM corrector + 0.5 μM potentiator)
Where a name gives a salt, the structure may show the parent alone.
Measured MTECC24 CFHBEC- Amax % determines class: 0 = under 60%, 1 = from 60% up to 80%, 2 = 80% and over

compound: O=S(=O)(Nc1ccc(C(F)(F)F)c(-c2ccccc2C(F)(F)F)n1)c1cccc(N2CC(O)C2)n1
group: 1
//
compound: Cc1ccccc1-c1nc(NS(=O)(=O)c2cccc(O[C@@H]3COC[C@@H]3O)n2)ccc1C(F)(F)F (racemic) [Example 291]
group: 1
//
compound: CNC1CCN(c2cccc(S(=O)(=O)Nc3ccc(C(F)(F)F)c(-c4ccccc4C)n3)n2)CC1 [Example 109, Hydrochloride]
group: 2
//
compound: Cc1cc(F)ccc1-c1nc(NS(=O)(=O)c2cccc(N3CC(C)(O)C3)n2)ccc1C(F)(F)F
group: 1
//
compound: Cc1cccc(C)c1-c1nc(NS(=O)(=O)c2cccc(N3CC(O)(C4CC4)C3)n2)ccc1Cl
group: 1
//
compound: Cc1ccccc1-c1nc(NS(=O)(=O)c2cccc(N3CCN[C@@H](CO)C3)n2)ccc1C(F)(F)F [Example 165, hydrochloride]
group: 0
//
compound: Cc1cccc(C)c1-c1nc(NS(=O)(=O)c2ccnc(N)c2)ccc1Cl
group: 0
//
compound: Cc1cccc(C)c1-c1nc(NS(=O)(=O)c2cccc(N3CCn4cc(C(F)(F)F)nc4C3)n2)ccc1Cl
group: 2
//
compound: Cc1cccc(C)c1-c1nc(NS(=O)(=O)c2cccc(N3CCNCC3=O)n2)ccc1Cl [Example 192, hydrochloride]
group: 0
//
compound: Cc1ccccc1-c1nc(NS(=O)(=O)c2cccc(N3CC(O)(C(F)(F)F)C3)n2)ccc1C(F)(F)F
group: 2
//
compound: Cc1cccc(C)c1-c1nc(NS(=O)(=O)c2cccc(NC3CCOCC3)n2)ccc1Cl
group: 1
//
compound: Cc1cccc(C)c1-c1cc(C(F)(F)F)cc(NS(=O)(=O)c2cccc(N3CC(O)C3)n2)n1
group: 1
//
compound: Cc1ccccc1-c1nc(NS(=O)(=O)c2cccc(N3CCCC(C)(C(=O)O)C3)n2)ccc1C(F)(F)F (stereo not shown)
group: 0
//
compound: Cc1ccc(F)cc1-c1nc(NS(=O)(=O)c2cccc(O[C@@H]3COC[C@@H]3O)n2)ccc1Cl
group: 0
//
compound: Cc1ccc(F)cc1-c1nc(NS(=O)(=O)c2cccc(N3CCN[C@H](C)C3)n2)ccc1C(F)(F)F [Example 176, Hydrochloride]
group: 1
//
compound: Cc1ccccc1-c1nc(NS(=O)(=O)c2cccc(N3CCN(C(=O)OC(C)(C)C)[C@H](C)C3)n2)ccc1C(F)(F)F
group: 1
//
compound: Cc1ccc(F)cc1-c1nc(NS(=O)(=O)c2ccnc(N3CCOC[C@H]3C)c2)ccc1Cl
group: 0

====

Reported values of EC50 for individual entries
target: delF508-CFTR (Homo sapiens, UniProt P13569, DEL508-508); construct: functional activity of the CFTR channel (Chloride ion transport) in patient derived primary human bronchial epithelial cells; assay: Measurement of delF508-CFTR functional activity in primary human bronchial epithelial cells (HBECs) using Multi-Transepithelial Clamp Circuit (MTECC-24) assay; conditions: primary CF HBECs; test compound added 24h before assay, in the presence of potentiator; mean of at least two replicates; read-out: MTECC24 CFHBEC- EC50
Where a name gives a salt, the structure may show the parent alone.

molecule: Cc1c(F)cccc1-c1nc(NS(=O)(=O)c2ccnc(N3CC(O)C3)c2)ccc1Cl
EC50 [nM]: 147
//
molecule: Cc1ccccc1-c1nc(NS(=O)(=O)c2cccc(N[C@H]3C[C@@H](O)C3)n2)ccc1C(F)(F)F
EC50 [nM]: 0.8
//
molecule: Cc1cccc(C)c1-c1nc(NS(=O)(=O)c2cccc(N3CC(O)(C4CC4)C3)n2)ccc1Cl
EC50 [nM]: 8.6
//
molecule: Cc1cc(F)ccc1-c1nc(NS(=O)(=O)c2cccc(N3CC(C)(O)C3)n2)ccc1C(F)(F)F
EC50 [nM]: 38
//
molecule: Cc1ccccc1-c1nc(NS(=O)(=O)c2cccc(N3CCN(C(=O)CN)CC3)n2)ccc1C(F)(F)F [Example 191, hydrochloride]
EC50 [nM]: 101
//
molecule: Cc1ccc(F)cc1-c1nc(NS(=O)(=O)c2cccc(N[C@@H]3[C@H](CO)[C@H]4CC[C@@H]3O4)n2)ccc1Cl
EC50 [nM]: 5.3
//
molecule: Cc1c(F)cccc1-c1nc(NS(=O)(=O)c2cccc(N3CCN(C4CC4)CC3)n2)ccc1Cl
EC50 [nM]: 8.6
//
molecule: CO[C@H]1CCNC[C@H]1Nc1cccc(S(=O)(=O)Nc2ccc(C(F)(F)F)c(-c3ccccc3C)n2)n1 [Example 106, Hydrochloride]
EC50 [nM]: 79.5
//
molecule: Cc1ccc(F)cc1-c1nc(NS(=O)(=O)c2cccc(N3CCC(O)C3C(=O)O)n2)ccc1C(F)(F)F (centres unmarked)
EC50 [nM]: 52
//
molecule: O=S(=O)(Nc1ccc(Cl)c(-c2cccc(F)c2Cl)n1)c1cccc(N2CC(O)C2)n1
EC50 [nM]: 53.3
//
molecule: Cc1cc(F)ccc1-c1nc(NS(=O)(=O)c2cccc(N3CC(O)C3)n2)ccc1C(F)(F)F
EC50 [nM]: 23

====

Listed below: Emax values for each entry.
Target: horseradish peroxidase (HRP) tagged delF508-CFTR (Homo sapiens, UniProt P13569, DEL508-508)
Construct: expressed in transfected cells
Test: Measurement of delF508-CFTR-HRP surface expression in CFBE41o- cells
Type: cell-based
Conditions: delF508-CFTR-HRP surface expression, CFBE41o- cells; read-out: DelF508-CFTR-HRP Amax %
Method: Measurement of delF508-CFTR-HRP Surface Expression in CFBE41o-Cells This assay quantifies the cell surface expressions of the mutant CFTR channel using an extracellular HRP tag. […] The median activity for the lowest concentration of the compounds on each assay plate was calculated and this value was used to normalize the signal for each well on the respective plate. […] The median value was determined and used to calculate compound activities as described below. […]
Structures can show the parent of a compound that is named as a salt.

compound: Cc1ccccc1-c1nc(NS(=O)(=O)c2cccc(N3CCN[C@H](C(=O)O)C3)n2)ccc1C(F)(F)F
Emax (%): 71.3
--
compound: Cc1cccc(C)c1-c1nc(NS(=O)(=O)c2ccnc(N)c2)ccc1C(F)(F)F
Emax (%): 482
--
compound: Nc1cccc(S(=O)(=O)Nc2ccc(Cl)c(-c3c(Cl)cccc3C(F)(F)F)n2)n1
Emax (%): 327
--
compound: CCCC1(C(=O)O)CCN(c2cccc(S(=O)(=O)Nc3ccc(C(F)(F)F)c(-c4ccccc4CC)n3)n2)CC1
Emax (%): 492
--
compound: Cc1ccc(F)cc1-c1nc(NS(=O)(=O)c2ccnc(N3CCOC[C@H]3C)c2)ccc1Cl
Emax (%): 318
--
compound: Cc1ccccc1-c1nc(NS(=O)(=O)c2cccc(N[C@H]3CCOC[C@H]3O)n2)ccc1C(F)(F)F (single isomer, unassigned)
Emax (%): 817
--
compound: Cc1ccccc1-c1nc(NS(=O)(=O)c2ccnc(N)c2)ccc1Cl
Emax (%): 285
--
compound: Cc1ccccc1-c1nc(NS(=O)(=O)c2cccc(NC3CCNCC3)n2)ccc1C(F)(F)F [Example 112, Hydrochloride]
Emax (%): 172
--
compound: Cc1ccc(F)c(-c2nc(NS(=O)(=O)c3cccc(N)n3)ccc2Cl)c1Cl
Emax (%): 270
--
compound: O=S(=O)(Nc1ccc(C(F)(F)F)c(-c2ccccc2C2CC2)n1)c1cccc(N2CCNCC2)n1
Emax (%): 363
